experiment: Half-life in Sprague-Dawley rat at 5 mg/kg, po administered via gastric gavage by LC-MS/MS analysis; assay type: ADME, organism-based; conditions: in vivo
value-kind: half-life

Task item: # get_value(readout='half-life', item= O=C(O)C1=Cc2cc(S(F)(F)(F)(F)F)ccc2OC1C(F)(F)F (stereo unspecified) )
Reply: 12.5 h

* * *

assay: Cmax in Sprague-Dawley rat at 5 mg/kg, iv by LC-MS/MS analysis; type: ADME, organism-based; parameters: dose 5 mg/kg, route intravenous; conditions: in vivo
value-kind: Cmax (ng/mL)
Your answer is read as ng/mL, so omit the unit and give the number.

Task item: Look at this compound and give its reported Cmax. O=C(O)C1=Cc2cc(S(F)(F)(F)(F)F)ccc2OC1C(F)(F)F (stereo unspecified)
Reply: 31700
